# tested target: T1, human DR5 ECD-Avi-his (human, UniProt O14763 56-207)
# T1 construct: also called recombinant human DR5 (monomeric His-Avi fusion protein); monomeric human DR5
# experimental details: SPR (BIAcore 3000), antibody captured by anti-human Fc, monomeric DR5 injected
measured parameter: koff (s⁻¹)
Answer with a number only, understood to be in s⁻¹.

Q: Requested read-out: koff. Entry: DR5TAA-0067 (antibody, human IgG1, kappa, L234A L235A, V domains shown, humanized variant of DR5TAA-0011; also called VH7/VL15) VH: EVQLVETGGGLIQPGGSLRLSCAASGFTVSRYAMIWVRQAPGKGLEYIGFITSDGSTYYADSAKGRFTISRDNSKNTLYLQMNSLRAEDTAVYYCARYTYSDGTDLWGRGTLVTVSS VL: DIQMTQSPSTLSASVGDRVTITCRASQSISTYLSWYQQKPGKAPKRLIYKASSLASGVPSRFSGSGSGTEFTLTISSLQPDDAATYYCQPNSGIATYGAAFGGGTKVEIKR
A: 0.0052
